# credit: patent US9763954B2

assay: Plasma pharmacokinetics after oral administration to CD-1 mice; type: in vivo; settings: CD-1, mouse, plasma, po, 350 mg/kg, plasma; after 350 mg/kg S-licarbazepine oral, CD-1 mice; read-out: AUC0-t
metric: AUC(0-t) (µg·h/mL)
Write down the numeric answer in µg·h/mL and omit the unit.

Quick note, AUC(0-t) for NC(=O)N1c2ccccc2C[C@H](O)c2ccccc21 [S-licarbazepine] landed at 187

---

test: Plasma pharmacokinetics after oral administration to CD-1 mice; assay type: in vivo; conditions: CD-1, mouse, plasma, po, 350 mg/kg, plasma; after 350 mg/kg R-licarbazepine oral, CD-1 mice; read-out: AUC0-t
metric: AUC(0-t) (ng·h/mL)
Your answer should be a plain number; it is taken to be in ng·h/mL.

Per the records, this compound ( NC(=O)N1c2ccccc2C[C@H](O)c2ccccc21 [S-licarbazepine] ) has AUC(0-t) equal to 4580

---

test: Plasma pharmacokinetics after oral administration to CD-1 mice; format: in vivo; conditions: mouse; plasma; after 350 mg/kg S-licarbazepine oral, CD-1 mice
metric: AUC(0-inf) (µg·h/mL)
Quick reminder: number only, in µg·h/mL, skip the unit.

Sample NC(=O)N1c2ccccc2C[C@H](O)c2ccccc21 [S-licarbazepine] ; AUC(0-inf) observed: 258

---

assay: Brain pharmacokinetics (brain access) after oral administration to CD-1 mice; assay type: in vivo; conditions: mouse; brain; after 350 mg/kg S-licarbazepine oral, CD-1 mice
metric: AUC(0-inf)
Hi, when you answer, please include the unit after the number. Thanks!

According to the records, this compound NC(=O)N1c2ccccc2C[C@H](O)c2ccccc21 [S-licarbazepine] displays AUC(0-inf) of 111 µg·h/mL

---

assay: Plasma pharmacokinetics after oral administration to CD-1 mice; format: in vivo; conditions: CD-1, mouse, oral, 350 mg/kg; plasma; approximate range stated for both enantiomers; read-out: mean residence time (MRT)
metric: MRT

Looking up NC(=O)N1c2ccccc2C[C@H](O)c2ccccc21 [S-licarbazepine] , I see its MRT listed as 10 to 12 h

---

experiment: Plasma pharmacokinetics after oral administration to CD-1 mice; format: in vivo; conditions: CD-1, mouse, oral, 350 mg/kg; plasma; approximate value stated for both enantiomers; read-out: elimination half-life (t1/2) (converted)
metric: half-life

Lab note: measured half-life of NC(=O)N1c2ccccc2C[C@H](O)c2ccccc21 [S-licarbazepine] was ~8 h

---

test: Brain pharmacokinetics (brain access) after oral administration to CD-1 mice; format: in vivo; details: mouse; brain; after 350 mg/kg S-licarbazepine oral, CD-1 mice; read-out: AUC0-t
Source text: […]
metric: AUC(0-t) (µg·h/mL)
The reply should be a number in µg·h/mL, with the unit left off.

Record NC(=O)N1c2ccccc2C[C@H](O)c2ccccc21 [S-licarbazepine] . Reported AUC(0-t): 109

---

experiment: Plasma pharmacokinetics after oral administration to CD-1 mice; format: in vivo; settings: mouse; plasma; after 350 mg/kg S-licarbazepine oral, CD-1 mice; read-out: t½ (converted)
metric: half-life (min)
Only the number, expressed in min, is required.

Form field half-life, entry NC(=O)N1c2ccccc2C[C@H](O)c2ccccc21 [S-licarbazepine] : 476

---

test: Brain pharmacokinetics (brain access) after oral administration to CD-1 mice; assay type: in vivo; details: mouse; brain; after 350 mg/kg S-licarbazepine oral, CD-1 mice; read-out: MRT
metric: MRT (h)
A number alone suffices; assume h.

Given item NC(=O)N1c2ccccc2C[C@H](O)c2ccccc21 [S-licarbazepine] , the value recorded as its MRT is 7.84

---

test: Brain pharmacokinetics (brain access) after oral administration to CD-1 mice; format: in vivo; settings: mouse; brain; after 350 mg/kg S-licarbazepine oral, CD-1 mice; read-out: tmax
metric: tmax (h)
Express it in h; write the number only.

# tmax (molecule: NC(=O)N1c2ccccc2C[C@H](O)c2ccccc21 [S-licarbazepine] ) is 1

---

test: Brain pharmacokinetics (brain access) after oral administration to CD-1 mice; assay type: in vivo; details: mouse; brain; after 350 mg/kg S-licarbazepine oral, CD-1 mice; read-out: t½ (converted)
metric: half-life (h)
Number in h, nothing else.

response.value for NC(=O)N1c2ccccc2C[C@H](O)c2ccccc21 [S-licarbazepine] (field: half-life) = 4.87

---

assay: Brain pharmacokinetics (brain access) after oral administration to CD-1 mice; format: in vivo; conditions: mouse; brain; after 350 mg/kg S-licarbazepine oral, CD-1 mice; read-out: Cmax
metric: Cmax (ng/mL)
Entry rule: numbers only, all in ng/mL.

So for NC(=O)N1c2ccccc2C[C@H](O)c2ccccc21 [S-licarbazepine] , the logged Cmax turned out to be 12300

---

assay: Plasma pharmacokinetics after oral administration to CD-1 mice; format: in vivo; details: mouse; plasma; after 350 mg/kg S-licarbazepine oral, CD-1 mice; read-out: MRT
From the text: […]
metric: MRT (h)
Give the number; h is assumed, so skip it.

GET /value?item= NC(=O)N1c2ccccc2C[C@H](O)c2ccccc21 [S-licarbazepine] &field=MRT returns 11.7

---

assay: Plasma pharmacokinetics after oral administration to CD-1 mice; assay type: in vivo; conditions: mouse; plasma; after 350 mg/kg S-licarbazepine oral, CD-1 mice; read-out: tmax
metric: tmax (min)
Report only the number, with the unit min understood.

So, NC(=O)N1c2ccccc2C[C@H](O)c2ccccc21 [S-licarbazepine] ? Its tmax was 15
